Target: T1, SIPA1L2, Q9P2F8
T1 sequence (Q9P2F8 945-1036, limits assumed, looked up): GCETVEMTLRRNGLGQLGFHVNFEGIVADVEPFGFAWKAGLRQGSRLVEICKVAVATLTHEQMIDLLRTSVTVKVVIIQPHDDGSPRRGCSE
Assay: holdup assay
Parameters: key: below the threshold = too weak to quantify, mostly under pKd 3.1 to 4
Conditions: plain residues with an end cap or a label only (N-terminal biotin on a linker: ado-ado)
observation type: pKd

Prompt: I am curious: what pKd value has been reported for GTMFLRETSL [GUCY1A2, P33402] ?
Response: below the threshold

Prompt: // lookup pKd for YAEKRMLTEV [KCNA6, P17658]
Response: below the threshold

Prompt: For the binder shown here, IQISELETNV [SLC1A7, O00341] , give the reported pKd.
Response: below the threshold

Prompt: // returns reported pKd for input GQNMTVSVVI [PRLHR, P49683]
Response: 3.54

Prompt: Tell me the measured pKd of TKEIPNCTSV [SORCS3, Q9UPU3] , please.
Response: 3.49

Prompt: What does the record list as pKd for NNMAFETTHF [SLC5A12, Q1EHB4] ?
Response: below the threshold

Others:
Prompt: Value lookup for pKd; key = PLATCDETSI [SEMA4F, O95754]
Response: below the threshold

Prompt: Reported pKd for FHSIKQSTAV [CRHR1, P34998] : what is it?
Response: below the threshold
